- Species: Rattus norvegicus
- experimentDescription: Open TG-GATES - Regimen: Daily Repeat
- Type: toxicity, organism-based, Sprague-Dawley
- Set-up: regimen Daily Repeat, gender Male, age 6 weeks
- conditionContext: in vivo, po, 0 mg/kg, […], tissue Plasma, route gavage, dose level Control, time 14 day
Recorded Ca, one value per entry.
assayReadout: Ca (mg/dL)

- CC(=O)N1CCN(c2ccc(OCC3COC(Cn4ccnc4)(c4ccc(Cl)cc4Cl)O3)cc2)CC1 (stereo unspecified): 10.3
- CC[C@@H](CO)NCCN[C@@H](CC)CO: 10.5
- CC(=O)Nc1ccc2c(c1)Cc1ccccc1-2: 10.7
- O=C(O)COc1nn(Cc2ccccc2)c2ccccc12: 10.4
- CC(N)=O [ACETAMIDE]: 10.4
- CCN(CC)N=O: 10.6

###

- Species on record: Rattus norvegicus
- experimentDescription: Open TG-GATES - Regimen: Daily Repeat
- Format: toxicity, organism-based, Sprague-Dawley
- Design: regimen Daily Repeat, gender Male, age 6 weeks
- conditionContext: in vivo, po, 0 mg/kg, […], tissue Blood, route gavage, dose level Control, time 7 day
The following compounds are shown together with reported Fbg values.
assayReadout: Fbg (mg/dL)

* CCN(CC)N=O | 217.4
* CC(CCc1ccccc1)NCC(O)c1ccc(O)c(C(N)=O)c1 (configuration not stated) | 319.2
* CC(=O)Nc1ccc2c(c1)Cc1ccccc1-2 | 242
* CC(C)Cc1ccc(C(C)C(=O)O)cc1 (configuration not stated) | 292.8
* O=C(O)COc1nn(Cc2ccccc2)c2ccccc12 | 228.6
* CC(=O)N1CCN(c2ccc(OCC3COC(Cn4ccnc4)(c4ccc(Cl)cc4Cl)O3)cc2)CC1 (configuration not stated) | 301.6
* CC[C@@H](CO)NCCN[C@@H](CC)CO | 338.4

###

The following molecules are listed with their measured RALB values.
- Species: Rattus norvegicus
- experimentDescription: Open TG-GATES - Regimen: Daily Repeat
- Format: toxicity, organism-based, Sprague-Dawley
- Design: regimen Daily Repeat, gender Male, age 6 weeks
- conditionContext: in vivo, po, 0 mg/kg, […], tissue Plasma, route gavage, dose level Control, time 7 day
assayReadout: RALB (g/dL)

* CC(=O)N1CCN(c2ccc(OCC3COC(Cn4ccnc4)(c4ccc(Cl)cc4Cl)O3)cc2)CC1 (stereo not drawn) | 3.2
* CCN(CC)N=O | 3.3
* CC(=O)Nc1ccc2c(c1)Cc1ccccc1-2 | 3.4
* CC(CCc1ccccc1)NCC(O)c1ccc(O)c(C(N)=O)c1 (stereo not drawn) | 2.7
* CC[C@@H](CO)NCCN[C@@H](CC)CO | 3
* O=C(O)COc1nn(Cc2ccccc2)c2ccccc12 | 3.9
* CC(C)Cc1ccc(C(C)C(=O)O)cc1 (stereo not drawn) | 3.1
* CC(N)=O [ACETAMIDE] | 2.8

###

- Species on record: Rattus norvegicus
- experimentDescription: Open TG-GATES - Regimen: Single
- Type: toxicity, organism-based, Sprague-Dawley
- Parameters: regimen Single, gender Male, age 6 weeks
- conditionContext: in vivo, po, 0 mg/kg, 24 h, tissue Kidney, route gavage, dose level Control
KIDNEY_TOTAL: recorded values
assayReadout: KIDNEY_TOTAL

* CC(C)Cc1ccc(C(C)C(=O)O)cc1 (configuration not stated) | 1.8 g
* CC(=O)Nc1ccc2c(c1)Cc1ccccc1-2 | 2.1 g
* CC[C@@H](CO)NCCN[C@@H](CC)CO | 2 g
* CC(=O)N1CCN(c2ccc(OCC3COC(Cn4ccnc4)(c4ccc(Cl)cc4Cl)O3)cc2)CC1 (configuration not stated) | 2 g
* CC(CCc1ccccc1)NCC(O)c1ccc(O)c(C(N)=O)c1 (configuration not stated) | 1.9 g
* CCN(CC)N=O | 2.1 g
* O=C(O)COc1nn(Cc2ccccc2)c2ccccc12 | 2 g

###

- Species: Rattus norvegicus
- experimentDescription: Open TG-GATES - Regimen: Single
- Type: toxicity, organism-based, Sprague-Dawley
- Design: regimen Single, gender Male, age 6 weeks
- conditionContext: in vivo, po, 0 mg/kg, 9 h, tissue Blood, route gavage, dose level Control
Quick reference for Bas among some molecules
assayReadout: Bas (%)

• CC(=O)N1CCN(c2ccc(OCC3COC(Cn4ccnc4)(c4ccc(Cl)cc4Cl)O3)cc2)CC1 (configuration not stated) = 0
• CC(CCc1ccccc1)NCC(O)c1ccc(O)c(C(N)=O)c1 (configuration not stated) = 0
• CCN(CC)N=O = 0.8
• CC(=O)Nc1ccc2c(c1)Cc1ccccc1-2 = 0.8
• O=C(O)COc1nn(Cc2ccccc2)c2ccccc12 = 0
• CC(C)Cc1ccc(C(C)C(=O)O)cc1 (configuration not stated) = 0
• CC[C@@H](CO)NCCN[C@@H](CC)CO = 0

###

Some molecules, each annotated with its measured Fbg.
- Organism: Rattus norvegicus
- experimentDescription: Open TG-GATES - Regimen: Daily Repeat
- Assay type: toxicity, organism-based, Sprague-Dawley
- Design: regimen Daily Repeat, gender Male, age 6 weeks
- conditionContext: in vivo, po, 0 mg/kg, 72 h, tissue Blood, route gavage, dose level Control, time 3 day
assayReadout: Fbg (mg/dL)

• CC[C@@H](CO)NCCN[C@@H](CC)CO = 308.2
• CC(=O)Nc1ccc2c(c1)Cc1ccccc1-2 = 227.2
• CC(C)Cc1ccc(C(C)C(=O)O)cc1 (configuration not stated) = 283.4
• CC(CCc1ccccc1)NCC(O)c1ccc(O)c(C(N)=O)c1 (configuration not stated) = 295.4
• CC(=O)N1CCN(c2ccc(OCC3COC(Cn4ccnc4)(c4ccc(Cl)cc4Cl)O3)cc2)CC1 (configuration not stated) = 294.6
• O=C(O)COc1nn(Cc2ccccc2)c2ccccc12 = 223.2
• CCN(CC)N=O = 218.2

###

Quick reference: Na of the listed items.
- Organism: Rattus norvegicus
- experimentDescription: Open TG-GATES - Regimen: Daily Repeat
- Assay type: toxicity, organism-based, Sprague-Dawley
- Set-up: regimen Daily Repeat, gender Male, age 6 weeks
- conditionContext: in vivo, po, 0 mg/kg, […], tissue Plasma, route gavage, dose level Control, time 28 day
assayReadout: Na (meq/L)

- CC(=O)N1CCN(c2ccc(OCC3COC(Cn4ccnc4)(c4ccc(Cl)cc4Cl)O3)cc2)CC1 (stereo not given) [KETOCONAZOLE]: 141.8
- CC(CCc1ccccc1)NCC(O)c1ccc(O)c(C(N)=O)c1 (stereo not given) [LABETALOL]: 142.4
- CC(C)Cc1ccc(C(C)C(=O)O)cc1 (stereo not given) [IBUPROFEN]: 140.8
- CC(=O)Nc1ccc2c(c1)Cc1ccccc1-2 [2-ACETYLAMINOFLUORENE]: 140.4
- CC(N)=O [ACETAMIDE]: 142.3

###

# Ret annotations
- Organism: Rattus norvegicus
- experimentDescription: Open TG-GATES - Regimen: Daily Repeat
- Type: toxicity, organism-based, Sprague-Dawley
- Set-up: regimen Daily Repeat, gender Male, age 6 weeks
- conditionContext: in vivo, po, 0 mg/kg, 72 h, tissue Blood, route gavage, dose level Control, time 3 day
assayReadout: Ret (%)

• CC[C@@H](CO)NCCN[C@@H](CC)CO = 6.5
• CC(C)Cc1ccc(C(C)C(=O)O)cc1 (stereo not drawn) = 6.7
• CC(=O)N1CCN(c2ccc(OCC3COC(Cn4ccnc4)(c4ccc(Cl)cc4Cl)O3)cc2)CC1 (stereo not drawn) = 6.5
• CCN(CC)N=O = 5.8
• CC(CCc1ccccc1)NCC(O)c1ccc(O)c(C(N)=O)c1 (stereo not drawn) = 6.4
• CC(=O)Nc1ccc2c(c1)Cc1ccccc1-2 = 5.8
• O=C(O)COc1nn(Cc2ccccc2)c2ccccc12 = 6.5
• CC(N)=O [ACETAMIDE] = 7.1

###

- Species on record: Rattus norvegicus
- experimentDescription: Open TG-GATES - Regimen: Daily Repeat
- Type: toxicity, organism-based, Sprague-Dawley
- Design: regimen Daily Repeat, gender Male, age 6 weeks
- conditionContext: in vivo, po, 0 mg/kg, […], tissue Blood, route gavage, dose level Control, time 14 day
Recorded PT, one value per entry.
assayReadout: PT (s)

- CC[C@@H](CO)NCCN[C@@H](CC)CO [ETHAMBUTOL]: 16.3
- CCN(CC)N=O [N-NITROSODIETHYLAMINE]: 12
- CC(CCc1ccccc1)NCC(O)c1ccc(O)c(C(N)=O)c1 (configuration not stated) [LABETALOL]: 12.8
- CC(=O)Nc1ccc2c(c1)Cc1ccccc1-2 [2-ACETYLAMINOFLUORENE]: 11.8
- O=C(O)COc1nn(Cc2ccccc2)c2ccccc12 [BENDAZAC]: 11
- CC(=O)N1CCN(c2ccc(OCC3COC(Cn4ccnc4)(c4ccc(Cl)cc4Cl)O3)cc2)CC1 (configuration not stated) [KETOCONAZOLE]: 16.1
- CC(C)Cc1ccc(C(C)C(=O)O)cc1 (configuration not stated) [IBUPROFEN]: 16
